# target.or.system: Bifunctional epoxide hydrolase 2 (Homo sapiens)
# Sequence (P34913 whole entry): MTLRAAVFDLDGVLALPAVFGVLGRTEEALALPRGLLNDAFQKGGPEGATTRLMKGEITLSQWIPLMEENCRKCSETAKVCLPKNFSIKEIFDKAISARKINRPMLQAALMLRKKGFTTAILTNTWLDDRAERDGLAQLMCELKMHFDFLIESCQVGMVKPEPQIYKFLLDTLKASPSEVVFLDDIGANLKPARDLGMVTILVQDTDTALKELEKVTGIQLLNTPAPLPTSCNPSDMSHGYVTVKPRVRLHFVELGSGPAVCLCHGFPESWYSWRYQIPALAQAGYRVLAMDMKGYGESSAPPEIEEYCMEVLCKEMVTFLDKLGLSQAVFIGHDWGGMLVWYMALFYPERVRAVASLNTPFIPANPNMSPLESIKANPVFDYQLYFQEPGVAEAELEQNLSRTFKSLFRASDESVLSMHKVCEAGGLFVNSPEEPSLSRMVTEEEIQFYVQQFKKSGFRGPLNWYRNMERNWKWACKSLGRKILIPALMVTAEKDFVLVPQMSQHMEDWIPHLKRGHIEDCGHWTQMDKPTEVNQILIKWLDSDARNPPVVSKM
# procedure.details: Inhibition of recombinant human soluble epoxide hydrolase assessed as increase in fluorescence intensity by fluorescence plate reader
experimental.endpoint: IC50 (nM)
A number alone suffices; assume nM.

INSERT INTO assay_data (compound, experimental_endpoint, endpoint_value) VALUES
  ('O=C(O)CCc1ccc(OC2CCN(C(=O)N[C@H]3C[C@@H]3c3ccccc3)CC2)cc1 (racemic)', 'IC50', 19.1),
  ('C[C@@H]1[C@H](NC(=O)N2CCC(Oc3ccc(CCC(=O)O)cc3)CC2)[C@H]1c1ccccc1 (racemic)', 'IC50', 75.7),
  ('CN1CCN(C(=O)N[C@@H]2[C@@H](c3ccccc3)[C@H]2c2ccccc2)CC1', 'IC50', 14.4);

Field: next compound
[ask] Recall and state the measured IC50 for C[C@H]1[C@H](NC(=O)N2CCC(Oc3ccc(CCC(=O)O)cc3)CC2)[C@H]1c1ccccc1 (racemic) .
[reply] 12

---

# target.or.system: Bifunctional epoxide hydrolase 2 (Rattus norvegicus, UniProt P80299)
# Sequence (P80299 whole entry): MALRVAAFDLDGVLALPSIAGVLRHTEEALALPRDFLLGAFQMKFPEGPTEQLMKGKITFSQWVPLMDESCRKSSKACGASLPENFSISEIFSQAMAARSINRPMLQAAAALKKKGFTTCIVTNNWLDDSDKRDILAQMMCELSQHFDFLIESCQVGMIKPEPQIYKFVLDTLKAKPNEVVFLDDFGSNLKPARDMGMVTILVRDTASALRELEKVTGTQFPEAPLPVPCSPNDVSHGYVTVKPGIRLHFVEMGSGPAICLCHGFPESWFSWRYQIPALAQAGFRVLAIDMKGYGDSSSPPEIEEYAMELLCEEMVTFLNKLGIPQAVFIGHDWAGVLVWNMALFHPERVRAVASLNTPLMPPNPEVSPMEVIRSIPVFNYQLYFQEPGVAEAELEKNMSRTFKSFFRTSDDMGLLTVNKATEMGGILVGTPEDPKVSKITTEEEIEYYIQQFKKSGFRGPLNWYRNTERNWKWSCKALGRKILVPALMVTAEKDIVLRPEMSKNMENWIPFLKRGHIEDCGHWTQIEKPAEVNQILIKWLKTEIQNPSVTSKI
# procedure.details: Inhibition of recombinant rat soluble epoxide hydrolase assessed as increase in fluorescence intensity by fluorescence plate reader
experimental.endpoint: log10(IC50) (log10 of the value in nM)
In plain terms, each number is the log10 of measured IC50 in nM.

As a guide, the following entries are already answered.
INSERT INTO measurements (molecule, target_or_system, endpoint_value) VALUES
  ('C[C@H]1[C@H](NC(=O)N2CCC(Oc3ccc(CCC(=O)O)cc3)CC2)[C@H]1c1ccccc1 (racemic)', 'Bifunctional epoxide hydrolase 2 (Rattus norvegicus, UniProt P80299)', 1.07),
  ('O=C(O)CCc1ccc(OC2CCN(C(=O)N[C@H]3C[C@@H]3c3ccccc3)CC2)cc1 (racemic)', 'Bifunctional epoxide hydrolase 2 (Rattus norvegicus, UniProt P80299)', 1.75),
  ('O=C(O)CCc1ccc(OC2CCN(C(=O)N[C@@H]3[C@@H](c4ccccc4)[C@H]3c3ccccc3)CC2)cc1', 'Bifunctional epoxide hydrolase 2 (Rattus norvegicus, UniProt P80299)', 0.59),
  ('CS(=O)(=O)N[C@@H]1CCCN(C(=O)N[C@@H]2[C@@H](c3ccccc3)[C@H]2c2ccccc2)C1 (mixture of isomers)', 'Bifunctional epoxide hydrolase 2 (Rattus norvegicus, UniProt P80299)', -0.10);

Shifting focus to the molecule that follows.
[ask] For Bifunctional epoxide hydrolase 2 (Rattus norvegicus, UniProt P80299), give the measured log10(IC50) of the entry O=C(O)CCc1ccc(OC2CCN(C(=O)N[C@@H]3[C@@H](c4ccc(F)cc4)[C@H]3c3ccc(F)cc3)CC2)cc1
[reply] 0.51
